System: 242566-281-R-J2-PDC complex spheroid viability;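 note: spheroids exposed to compounds for 7 days before readout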
assay.explanation: Anticancer human tumor 242566-281-R-J2-PDC patient-derived pancreatic carcinoma cell line growth inhibition [CLK]; active = viability on the fitted dose curve at most 10% of control; inactive = the rest
run.conditions: second compound 1 µM; first compound 3.16 µM
Outcomes: Yes for active, No for inactive

[[record]]
compound = "Nc1ccn(C2OC(CO)C(O)C2(F)F)c(=O)n1 (stereo unspecified) + CNC(=O)c1ccc(Nc2nc(OC3CCCC3)c3c(-c4ccc5nc(C)oc5c4)c[nH]c3n2)c(OC)c1"
class = "Yes"

[[record]]
compound = "Nc1ccccc1NC(=O)c1ccc(CNC(=O)OCc2cccnc2)cc1 + CNC(=O)c1ccc(Nc2nc(OC3CCCC3)c3c(-c4ccc5nc(C)oc5c4)c[nH]c3n2)c(OC)c1"
class = "No"

[[record]]
compound = "Nc1ccn(C2OC(CO)C(O)C2(F)F)c(=O)n1 (stereo unspecified) + CN1CCN(c2cc(C(=O)Nc3cc4cc(-c5cnn(C)c5)ccc4cn3)ccn2)CC1"
class = "Yes"

[[record]]
compound = "CC(=O)O[C@H]1C(=O)[C@@]2(C)[C@H]([C@H](OC(=O)c3ccccc3)[C@]3(O)C[C@H](OC(=O)[C@H](O)[C@@H](NC(=O)c4ccccc4)c4ccccc4)C(C)=C1C3(C)C)[C@]1(OC(C)=O)CO[C@@H]1C[C@@H]2O + CN1CCN(c2cc(C(=O)Nc3cc4cc(-c5cnn(C)c5)ccc4cn3)ccn2)CC1"
class = "Yes"

[[record]]
compound = "CC(Nc1ccc2c(c1)OCCn1cc(N3C(=O)OCC3C(F)F)nc1-2)C(N)=O (stereo unspecified) + CN1CCN(c2cc(C(=O)Nc3cc4cc(-c5cnn(C)c5)ccc4cn3)ccn2)CC1"
class = "Yes"

[[record]]
compound = "C#Cc1c(F)ccc2cc(O)cc(-c3ncc4c(N5CC6CCC(C5)N6)nc(OCC56CCCN5CC(F)C6)nc4c3F)c12 (stereo unspecified) + CNC(=O)c1ccc(Nc2nc(OC3CCCC3)c3c(-c4ccc5nc(C)oc5c4)c[nH]c3n2)c(OC)c1"
class = "No"

[[record]]
compound = "Nc1ccccc1NC(=O)c1ccc(CNC(=O)OCc2cccnc2)cc1 + CN1CCN(c2cc(C(=O)Nc3cc4cc(-c5cnn(C)c5)ccc4cn3)ccn2)CC1"
class = "Yes"

[[record]]
compound = "COC1C=CCC(C)C(C)S(=O)(=O)NC(=O)c2ccc3c(c2)N(CC2CCC21)CC1(CCCc2cc(Cl)ccc21)CO3 (stereo unspecified) + CN1CCN(c2cc(C(=O)Nc3cc4cc(-c5cnn(C)c5)ccc4cn3)ccn2)CC1"
class = "Yes"

[[record]]
compound = "CC1COCCN1c1cc(C2(S(C)(=N)=O)CC2)nc(-c2ccnc3[nH]ccc23)n1 (stereo unspecified) + CN1CCN(c2cc(C(=O)Nc3cc4cc(-c5cnn(C)c5)ccc4cn3)ccn2)CC1"
class = "Yes"

[[record]]
compound = "COc1ccc([C@@H](O)c2cc(-c3ncnc4cc(N5CCOCC5)ccc34)c(F)cc2Cl)nn1 + CN1CCN(c2cc(C(=O)Nc3cc4cc(-c5cnn(C)c5)ccc4cn3)ccn2)CC1"
class = "Yes"

[[record]]
compound = "CCCS(=O)(=O)Nc1ccc(F)c(C(=O)c2c[nH]c3ncc(-c4ccc(Cl)cc4)cc23)c1F + CN1CCN(c2cc(C(=O)Nc3cc4cc(-c5cnn(C)c5)ccc4cn3)ccn2)CC1"
class = "Yes"

